FYI, the data here is from ChEMBL document CHEMBL1811845.

Each item that follows carries a reported EC50.
# target_desc: GABA-A receptor; GABA-A site (alpha1/beta2 interface) (Homo sapiens, UniProt P14867+P47870)
# Sequence (P14867 whole entry): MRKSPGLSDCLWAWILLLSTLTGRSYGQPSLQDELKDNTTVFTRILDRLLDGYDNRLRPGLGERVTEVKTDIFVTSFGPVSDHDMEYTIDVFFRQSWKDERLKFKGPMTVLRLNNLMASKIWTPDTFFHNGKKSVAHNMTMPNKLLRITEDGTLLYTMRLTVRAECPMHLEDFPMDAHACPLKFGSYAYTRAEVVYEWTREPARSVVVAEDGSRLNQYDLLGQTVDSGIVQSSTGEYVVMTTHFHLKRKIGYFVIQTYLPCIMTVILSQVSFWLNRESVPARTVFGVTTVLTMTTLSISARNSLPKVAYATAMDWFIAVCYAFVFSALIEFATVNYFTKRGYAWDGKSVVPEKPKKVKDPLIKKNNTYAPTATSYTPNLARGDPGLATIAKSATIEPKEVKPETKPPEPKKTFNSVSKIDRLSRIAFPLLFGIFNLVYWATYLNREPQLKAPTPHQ
# Sequence (P47870 whole entry): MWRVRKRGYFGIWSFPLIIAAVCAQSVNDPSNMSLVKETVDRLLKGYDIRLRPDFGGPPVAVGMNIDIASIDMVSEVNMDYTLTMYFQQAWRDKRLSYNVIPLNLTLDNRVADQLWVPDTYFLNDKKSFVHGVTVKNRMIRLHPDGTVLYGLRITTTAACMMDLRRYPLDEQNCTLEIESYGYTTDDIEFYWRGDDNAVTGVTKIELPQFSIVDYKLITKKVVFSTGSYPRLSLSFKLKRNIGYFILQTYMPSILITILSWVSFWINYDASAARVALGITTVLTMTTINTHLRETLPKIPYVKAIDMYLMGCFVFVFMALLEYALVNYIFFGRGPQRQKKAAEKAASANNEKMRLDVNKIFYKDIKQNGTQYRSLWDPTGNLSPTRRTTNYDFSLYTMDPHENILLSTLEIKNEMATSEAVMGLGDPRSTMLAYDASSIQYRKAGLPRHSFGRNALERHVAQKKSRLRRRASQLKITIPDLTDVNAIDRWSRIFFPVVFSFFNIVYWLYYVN
# procedure_details: Modulation of GABA Aalpha1beta2 receptor expressed in Xenopus laevis oocytes assessed as potentiation of GABA-induced chloride current at holding potential -70 mV by two-microelectrode voltage clamp technique
Express it in µM; write the number only.

Consider the worked cases shown below.
CCCc1cc(N)c(O)c(-c2ccc(OC)c(CCC)c2)c1 : 9.2
COc1ccc(-c2cc(CCO)ccc2O)cc1CCO : 105
C=CCc1ccc(OC)c(-c2ccc(OC)c(CC=C)c2)c1 : 42.1
C=CCc1cc(-c2ccc(OC)c(CC=C)c2)c(O)c([N+](=O)[O-])c1 : 25
C=CCc1cc(NC(C)=O)c(O)c(-c2ccc(OC)c(CC=C)c2)c1 : 3.8
C=CCc1cccc(-c2cccc(CC=C)c2O)c1O : 35.2
C=CCc1cc(N)c(O)c(-c2ccc(OC)c(CC=C)c2)c1 : 12.4
C=CCc1ccc(O)c(-c2cc(CC=C)ccc2O)c1 : 36.8
COc1ccc(-c2cc(CC(C)O)ccc2O)cc1CC(C)O (stereo not given) : 34.2
C=CCc1ccc(O)c(-c2ccc(OC)c(CC=C)c2)c1 : 27.2

*Q* Report EC50 for CCCc1ccc(O)c(-c2ccc(OC)c(CCC)c2)c1 please.
*A* 12.7

*Q* Same thing, different molecule: CCCCC=CCc1ccc(O)c(-c2ccc(OC)c(CC=CCCCC)c2)c1 (mixture of isomers)
*A* 2

*Q* Same thing, different molecule: C=CCc1ccc(OCC)c(-c2ccc(O)c(CC=C)c2)c1
*A* 14.3

*Q* Same thing, different molecule: C=CCc1cc(-c2ccc(OC)c(CC=C)c2)c(O)c(N(C)C)c1
*A* 18.5

*Q* Same thing, different molecule: C=CCc1ccc(OC2CC2)c(-c2ccc(OCCC)c(CC=C)c2)c1
*A* 22
